- TGT: human RXFP1 (Homo sapiens)
- Sequence (Q9HBX9 whole entry): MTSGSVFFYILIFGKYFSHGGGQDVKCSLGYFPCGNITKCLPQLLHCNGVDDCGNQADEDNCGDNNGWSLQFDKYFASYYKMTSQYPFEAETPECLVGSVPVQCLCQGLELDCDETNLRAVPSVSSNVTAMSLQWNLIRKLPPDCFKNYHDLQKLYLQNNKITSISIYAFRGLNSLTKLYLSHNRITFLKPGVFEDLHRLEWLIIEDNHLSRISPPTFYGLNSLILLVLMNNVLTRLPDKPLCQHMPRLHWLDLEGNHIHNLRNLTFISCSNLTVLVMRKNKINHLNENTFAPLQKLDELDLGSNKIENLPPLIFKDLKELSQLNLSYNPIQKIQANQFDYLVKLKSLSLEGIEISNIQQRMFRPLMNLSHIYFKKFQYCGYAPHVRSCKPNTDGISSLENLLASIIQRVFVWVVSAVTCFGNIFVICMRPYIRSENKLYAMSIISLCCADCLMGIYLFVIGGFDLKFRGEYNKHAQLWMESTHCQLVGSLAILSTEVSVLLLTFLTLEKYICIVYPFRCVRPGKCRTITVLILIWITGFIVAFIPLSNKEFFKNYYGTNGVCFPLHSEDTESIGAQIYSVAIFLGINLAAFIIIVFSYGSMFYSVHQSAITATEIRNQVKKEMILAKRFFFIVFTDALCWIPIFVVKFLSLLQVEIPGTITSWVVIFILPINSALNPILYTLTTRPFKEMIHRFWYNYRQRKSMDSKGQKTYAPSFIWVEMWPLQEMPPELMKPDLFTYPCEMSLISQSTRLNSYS
- TEST: RXFP1 Hu cAMP (Test A)
- Format: cell-based
- Parameters: expressed in transfected cells; host or cells: Jump-In T-REx CHO-K1 cells (ThermoFisher), induced with 10 ng/ml doxycycline for 24 h
- STATED CONDITIONS: RXFP1 Hu cAMP; read-out: Test A EC50
MEASURED PROPERTY: EC50

Solved cases (2 shown):
                                   compound  test_value
0  O=C(O)c1ccc(-c2cc(C(=O)N[C@H]3[C@@H](C(=O)Nc4cccc(S(=O)(=O)C(F)(F)F)c4)[C@@H]4C=C[C@H]3C4)ccc2F)cc1 (racemic)     > 40 µM
1  COc1cc(F)c(OC2CCC(C)(C(=O)O)CC2)cc1C(=O)NC1COCC1C(=O)Nc1ccc(F)c(S(F)(F)(F)(F)F)c1 (stereo not drawn)     > 40 µM

Below: the item to evaluate.
Ask: Fill in the blank: the reported EC50 of COc1cc(F)c(O[C@H]2CC[C@@H](C(=O)O)CC2)cc1C(=O)N[C@@H]1[C@H]2CC[C@H](C2)[C@@H]1C(=O)Nc1cc(C#N)cc(C(F)(F)F)c1 is ____.
Reply: > 3.6 µM
